tested on: CAKI-1 renal; assay: NCI tumour cell line growth inhibition, 48 h
Listing of entries alongside the reported TGI.
attribute measured: TGI

[[record]]
molecule = "OCCNCCN1CCN(CCCN2c3ccccc3Sc3ccc(C(F)(F)F)cc32)CC1"
result_value = "> 100 µM"

[[record]]
molecule = "CCN(CC)CC1c2ccccc2C(CNc2ccccc2)N1C (stereo not drawn)"
result_value = "> 100 µM"

[[record]]
molecule = "C=CCC1(OCc2ccccc2)C(=O)C(=O)OC1C1COC(C)(C)O1 (stereo not drawn)"
result_value = "> 100 µM"


* * *

Listing of entries alongside the reported TGI.
tested on: UO-31 renal; test: NCI tumour cell line growth inhibition, 48 h
Where a SMILES comes first, the peptide text is derived from it. The star is where a group is joined. Boc = CC(C)(C)OC(=O)*
attribute measured: TGI

[[record]]
compound = "COc1cc(C(=O)C/C(CCC(=O)Nc2ccccc2[N+](=O)[O-])=N\\NC(N)=O)ccc1O"
attribute_measured = "TGI"
result_value = "> 100 µM"

[[record]]
compound = "O=C(c1ccccc1)c1ccc2nc(-c3c(Cl)c(Cl)c(Cl)c(Cl)c3C(=O)N/N=C/c3ccc(Cl)cc3)[nH]c2c1"
attribute_measured = "TGI"
result_value = "> 100 µM"

[[record]]
compound = "CN(C)CCCN1c2ccccc2Sc2ccc3ccccc3c21"
attribute_measured = "TGI"
result_value = "17 µM"

[[record]]
compound = "Fc1ccc(/C=N/n2c(-c3ccc(F)c(Cl)c3)nn(CNc3ccccc3C(F)(F)F)c2=S)cc1"
attribute_measured = "TGI"
result_value = "> 100 µM"

[[record]]
compound = "O=C1NC(=O)C(N2C(=O)c3ccccc3C2=O)CC1O (configuration not stated)"
attribute_measured = "TGI"
result_value = "> 100 µM"

[[record]]
compound = "CCn1c2ccccc2c2ccc3c(c21)C(=O)C=CC3=O"
attribute_measured = "TGI"
result_value = "21.6 µM"

[[record]]
compound = "O=C(NC1CCCCC1)NS(=O)(=O)c1ccc2c(c1)CCC2"
attribute_measured = "TGI"
result_value = "> 100 µM"

[[record]]
compound = "COc1cc2c3c(c1)CCCN3CCC2"
attribute_measured = "TGI"
result_value = "> 10 µM"

[[record]]
compound = "CN1C(=O)N(C)C2C1NN=c1s/c(=C\\c3ccc(C(F)(F)F)cc3)c(=O)n12 (configuration not stated)"
attribute_measured = "TGI"
result_value = "> 100 µM"

[[record]]
compound = "COc1cc(/C=C/c2nc(NC(=S)Nc3ccccc3)nnc2C)cc(OC)c1OC"
attribute_measured = "TGI"
result_value = "67.7 µM"

[[record]]
compound = "CCOC(=O)C1=C(C)N(c2ccc(Cl)cc2)[C@]2(C#N)C(O)=C(Cl)C(Cl)=C(O)[C@]12C#N"
attribute_measured = "TGI"
result_value = "> 100 µM"

[[record]]
compound = "O=c1nc(NC2CCCCO2)ccn1CCO (configuration not stated)"
attribute_measured = "TGI"
result_value = "> 100 µM"

[[record]]
compound = "OCC12C3C4C5C3C1C5C42 (configuration not stated)"
attribute_measured = "TGI"
result_value = "> 100 µM"

[[record]]
compound = "N#C[C@H](OC1OC(COC2OC(CO)C(O)C(O)C2O)C(O)C(O)C1O)c1ccccc1 (some centres not stated)"
attribute_measured = "TGI"
result_value = "> 250 µM"

[[record]]
compound = "Cc1cc(S(=O)(=O)Nc2nc3ccccc3nc2-c2cccc([N+](=O)[O-])c2)c(S)cc1Cl"
attribute_measured = "TGI"
result_value = "46.1 µM"

[[record]]
compound = "O=C(O)CN1CCN(CC(=O)O)CC(=O)[O][Hg][O]C(=O)C1"
attribute_measured = "TGI"
result_value = "31.4 µM"

[[record]]
compound = "CC1(O)C=CC(=O)C=C1"
attribute_measured = "TGI"
result_value = "> 84.5 µM"

[[record]]
compound = "Cn1c(=O)c2c(nc3n2CC(=O)N3CCCCl)n(C)c1=O"
attribute_measured = "TGI"
result_value = "> 100 µM"

[[record]]
compound = "CC(=O)Nc1ccc(SC#N)c2c(NC(C)=O)cccc12"
attribute_measured = "TGI"
result_value = "> 100 µM"

[[record]]
compound = "Cn1c(=O)c2[nH]c(CCNC(=O)c3ccccc3)nc2n(C)c1=O"
attribute_measured = "TGI"
result_value = "> 100 µM"

[[record]]
compound = "O=C1OCC2=C1C(c1ccccc1)c1cc3c(cc1N2)OCO3 (configuration not stated)"
attribute_measured = "TGI"
result_value = "> 100 µM"

[[record]]
compound = "OCc1ccc(N2CCCC2c2ccccc2)cc1Cl (configuration not stated)"
attribute_measured = "TGI"
result_value = "27.4 µM"

[[record]]
compound = "COc1ccc(-c2cc(-c3ccc(C)cc3)nc3nc(=S)[nH]c(N)c23)cc1"
attribute_measured = "TGI"
result_value = "48 µM"

[[record]]
compound = "CN(N=O)C(=O)ON1C(=O)CCC1=O"
attribute_measured = "TGI"
result_value = "> 100 µM"

[[record]]
compound = "CC(=O)NC(CCCNC(=O)N(CCCl)N=O)C(=O)NCc1ccccc1 (configuration not stated)"
attribute_measured = "TGI"
result_value = "> 100 µM"

[[record]]
compound = "CCC(C=O)P1(=O)OC(C)(C)CN1C(C)(C)C (configuration not stated)"
attribute_measured = "TGI"
result_value = "> 100 µM"

[[record]]
compound = "CC1(C)C=Cc2c(cc(O)c3c(=O)c4cc(Cl)ccc4[nH]c23)O1"
attribute_measured = "TGI"
result_value = "5.91 µM"

[[record]]
compound = "Cc1ccc2c(C3Cc4ccccc4N3C(=O)/C=C\\C(=O)O)c(C)[nH]c2c1 (configuration not stated)"
attribute_measured = "TGI"
result_value = "> 100 µM"

[[record]]
compound = "CCN(CC)CC1c2ccccc2C(CNc2ccccc2)N1C (configuration not stated)"
attribute_measured = "TGI"
result_value = "> 100 µM"

[[record]]
compound = "COc1ccc(C=O)c([N+](=O)[O-])c1"
attribute_measured = "TGI"
result_value = "> 100 µM"

[[record]]
compound = "CC(C)(C)OC(=O)NC(Cc1ccc(O)cc1)C(=O)N1CCCC1C(=O)O (stereo not drawn) (Boc-Tyr-Pro-OH; configuration not given here)"
attribute_measured = "TGI"
result_value = "> 100 µM"

[[record]]
compound = "Cc1cc(C)c(-n2[nH]c(=O)n(C)c2=O)c(C)c1"
attribute_measured = "TGI"
result_value = "> 100 µM"

